- PROTOCOL_SUMMARY: Lapatinib pharmacokinetics in rat blood plasma (BP), HPLC-MS/MS, noncompartmental analysis
- Format: in vivo, rats
- CONDITION_CONTEXT: male, Wistar, rat, plasma, oral, lapatinib 100 mg/kg + elacridar, 0.25 h; read-out: Clapatinib in BP, single rat
READOUT_KIND: concentration at 0.25 h (ng/mL)
Field: numeric (ng/mL). Do not append units.

Recorded concentration at 0.25 h (molecule CS(=O)(=O)CCNCc1ccc(-c2ccc3ncnc(Nc4ccc(OCc5cccc(F)c5)c(Cl)c4)c3c2)o1 ): 700

###

- PROTOCOL_SUMMARY: Lapatinib pharmacokinetics and uptake in rat brain tissue (BT)
- Type: in vivo, rats
- CONDITION_CONTEXT: male, Wistar, rat, brain tissue homogenate, po, 100 mg/kg, lapatinib p.o. 100 mg/kg alone, 0.25 h; read-out: BT corr (BT homogenate corrected), S
- Method: This study was conducted on rats, which are a promising model to predict P-gp-based drug-drug interactions at the human BBB [15]. The animals were allowed to acclimate for one week before the beginning of the experiments. Adult male Wistar-strain rats (weight 470–525 g) were used in the study. […]
READOUT_KIND: concentration at 0.25 h (ng/mL)
Field: numeric (ng/mL). Do not append units.

Recorded concentration at 0.25 h (compound CS(=O)(=O)CCNCc1ccc(-c2ccc3ncnc(Nc4ccc(OCc5cccc(F)c5)c(Cl)c4)c3c2)o1 ): 27.9

###

- PROTOCOL_SUMMARY: Lapatinib pharmacokinetics and uptake in rat cerebrospinal fluid (CSF)
- Type: in vivo, rats
- CONDITION_CONTEXT: male, Wistar, rat, cerebrospinal fluid (CSF), po, 100 mg/kg, lapatinib p.o. 100 mg/kg alone, 2 h; read-out: Clapatinib in CSF, S (medium value)
READOUT_KIND: concentration at 2 h (ng/mL)
Field: numeric (ng/mL). Do not append units.

Recorded concentration at 2 h (compound CS(=O)(=O)CCNCc1ccc(-c2ccc3ncnc(Nc4ccc(OCc5cccc(F)c5)c(Cl)c4)c3c2)o1 ): 10.8
